Target: GPR103 Q318^7.39A (Homo sapiens, UniProt Q96P65, Q318A)
Construct: we used human full-length QRFPR-encoding plasmids; expressed in transfected cells; host or cells: HEK293 cells (HEK293A in the flow cytometry section), pCAGGS vector
Sequence (Q96P65 whole entry Q318A): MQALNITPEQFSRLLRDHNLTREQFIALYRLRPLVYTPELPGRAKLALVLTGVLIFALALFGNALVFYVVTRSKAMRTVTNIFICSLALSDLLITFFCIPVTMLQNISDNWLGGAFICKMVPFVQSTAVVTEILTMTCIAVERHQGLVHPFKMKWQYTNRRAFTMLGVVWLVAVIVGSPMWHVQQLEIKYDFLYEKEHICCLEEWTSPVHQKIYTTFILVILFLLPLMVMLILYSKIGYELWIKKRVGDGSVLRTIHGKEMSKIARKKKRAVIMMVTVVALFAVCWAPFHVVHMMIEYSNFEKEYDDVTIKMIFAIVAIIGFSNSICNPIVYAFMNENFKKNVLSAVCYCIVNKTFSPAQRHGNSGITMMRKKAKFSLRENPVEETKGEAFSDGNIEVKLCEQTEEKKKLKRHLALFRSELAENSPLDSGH
Assay: TGFα shedding assay; Exp. level WT (1:50)
Format: cell-based
Details: n = 3
No end group written: not given here.
assay_endpoint: EC50 (nM)
The reply should contain only the number, in nM.

Identify the reported EC50 for the following entry. TSGPLGNLAEELNGYSRKKGGFSFRF-NH2 [QRFP26]
85.1

Data credit: paper PMC11187126
